electrical conductivity values by entry
details: 313.15 K; 101.33 kPa; Liquid; impedancemetry (AC impedance bridge)

Compound: CCCCn1cc[n+](C)c1.COS(=O)(=O)[O-] [1-butyl-3-methylimidazolium methyl sulfate]
electrical conductivity: 0.254 S/m
--
Compound: CCn1cc[n+](C)c1.COS(=O)(=O)[O-] [1-ethyl-3-methylimidazolium methylsulfate]
electrical conductivity: 1.02 S/m
--
Compound: CCCCn1cc[n+](C)c1.O=S(=O)([O-])C(F)(F)F [1-butyl-3-methylimidazolium trifluoromethanesulfonate]
electrical conductivity: 0.553 S/m
--
Compound: CCn1cc[n+](C)c1.O=S(=O)([O-])C(F)(F)F [1-ethyl-3-methylimidazolium trifluoromethanesulfonate]
electrical conductivity: 1.45 S/m
